- assayed-system: RARα (Homo sapiens, UniProt P10276)
- Sequence (P10276 whole entry): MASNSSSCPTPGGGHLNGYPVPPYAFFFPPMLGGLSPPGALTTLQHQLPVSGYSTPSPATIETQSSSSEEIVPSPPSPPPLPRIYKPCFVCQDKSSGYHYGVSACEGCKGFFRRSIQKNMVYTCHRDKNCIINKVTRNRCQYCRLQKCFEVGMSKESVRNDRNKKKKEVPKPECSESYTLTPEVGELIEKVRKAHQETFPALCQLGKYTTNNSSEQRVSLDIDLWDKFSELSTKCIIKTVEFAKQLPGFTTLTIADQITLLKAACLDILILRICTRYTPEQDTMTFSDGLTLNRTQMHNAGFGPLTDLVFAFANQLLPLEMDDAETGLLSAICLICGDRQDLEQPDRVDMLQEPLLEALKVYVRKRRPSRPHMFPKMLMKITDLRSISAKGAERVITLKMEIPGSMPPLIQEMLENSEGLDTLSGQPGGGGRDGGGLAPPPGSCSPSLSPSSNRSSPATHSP
measurement-type: log10(Kd) (log10 of the value in nM)

[[record]]
compound = "CC(/C=C/C=C1/CCOc2cc3c(cc21)C(C)(C)CCC3(C)C)=C\\C(=O)O [Compound 144b]"
measured_value = 2.16

[[record]]
compound = "CC(/C=C/C=C1\\CCCc2cc3c(cc21)C(C)(C)CCC3(C)C)=C\\C(=O)O [Compound 109b]"
measured_value = 1.52

[[record]]
compound = "CC(/C=C/C=C1\\CCOc2cc3c(cc21)C(C)(C)CCC3(C)C)=C\\C(=O)O [Compound 119b]"
measured_value = 1.38

[[record]]
compound = "CCN1CC\\C(=C/C=C/C(C)=C/C(=O)O)c2cc3c(cc21)C(C)(C)CCC3(C)C [Compound 147b]"
measured_value = 0.78

[[record]]
compound = "CC(/C=C/C=C1/CCCc2cc3c(cc21)C(C)(C)CCC3(C)C)=C\\C(=O)O [Compound 101b]"
measured_value = 2.35


Data provenance is patent EP0933350A1.
